Attribution: patent US20250368745A1

# test system: T1, cynomolgus IL-18BP (cynomolgus monkey)
# T1 construct: also called cyno IL-18BP; cyIL-18BP
# T1 chain: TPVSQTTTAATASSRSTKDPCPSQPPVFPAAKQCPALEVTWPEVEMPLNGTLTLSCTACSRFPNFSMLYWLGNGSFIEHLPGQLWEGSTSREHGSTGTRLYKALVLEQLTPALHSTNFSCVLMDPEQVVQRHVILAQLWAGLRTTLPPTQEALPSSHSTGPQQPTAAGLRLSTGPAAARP
# test details: BLI, apparent KD
Exam item: assign 1 to entries whose Kd is below 2 nM and 0 to entries at or above 2 nM. Note that a value of exactly 2 nM receives 0.

binder	label
SA301a HC-Y50M (antibody, name in Kabat numbering, V domains shown, IgG1 kappa) VH: QVQLQESGPGLVKPSQTLSLTCTVSGYSITSDYNSHWIRQPPGKGLEWIGMIHYSGSTNYNPSLKSRVTISRDTSKNQFSLKLSSVTAADTAVYYCARNYGSIYVNYFDYWGQGTLVTVSS VL: EIVLTQSPATLSLSPGERATLSCSASSSVSYMYWYQQKPGQAPRPLIYRTSNLASGIPARFSGSGSGTDFTLTISSLEPEDFAVYYCQQYHSYPTFGGGTKVEIK	1
SA301a HC-Y50Q (antibody, name in Kabat numbering, V domains shown, IgG1 kappa) VH: QVQLQESGPGLVKPSQTLSLTCTVSGYSITSDYNSHWIRQPPGKGLEWIGQIHYSGSTNYNPSLKSRVTISRDTSKNQFSLKLSSVTAADTAVYYCARNYGSIYVNYFDYWGQGTLVTVSS VL: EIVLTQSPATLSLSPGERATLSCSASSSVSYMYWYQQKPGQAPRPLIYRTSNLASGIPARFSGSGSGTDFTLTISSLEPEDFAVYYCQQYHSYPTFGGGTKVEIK	1
SA301a HC-Y50R (antibody, name in Kabat numbering, V domains shown, IgG1 kappa) VH: QVQLQESGPGLVKPSQTLSLTCTVSGYSITSDYNSHWIRQPPGKGLEWIGRIHYSGSTNYNPSLKSRVTISRDTSKNQFSLKLSSVTAADTAVYYCARNYGSIYVNYFDYWGQGTLVTVSS VL: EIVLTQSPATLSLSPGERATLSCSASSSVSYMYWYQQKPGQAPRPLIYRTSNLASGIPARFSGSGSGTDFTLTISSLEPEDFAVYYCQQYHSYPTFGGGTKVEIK	0
SA301a HC-Y50F (antibody, name in Kabat numbering, V domains shown, IgG1 kappa) VH: QVQLQESGPGLVKPSQTLSLTCTVSGYSITSDYNSHWIRQPPGKGLEWIGFIHYSGSTNYNPSLKSRVTISRDTSKNQFSLKLSSVTAADTAVYYCARNYGSIYVNYFDYWGQGTLVTVSS VL: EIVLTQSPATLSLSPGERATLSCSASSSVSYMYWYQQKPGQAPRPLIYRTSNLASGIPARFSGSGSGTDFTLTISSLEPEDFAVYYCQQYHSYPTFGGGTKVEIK	1

Hi there! Is Kd for SA301a HC-I51M (antibody, name in Kabat numbering, V domains shown, IgG1 kappa) VH: QVQLQESGPGLVKPSQTLSLTCTVSGYSITSDYNSHWIRQPPGKGLEWIGYMHYSGSTNYNPSLKSRVTISRDTSKNQFSLKLSSVTAADTAVYYCARNYGSIYVNYFDYWGQGTLVTVSS VL: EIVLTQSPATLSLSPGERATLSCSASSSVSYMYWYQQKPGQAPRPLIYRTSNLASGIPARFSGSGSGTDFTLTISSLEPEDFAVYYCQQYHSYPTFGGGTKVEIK below 2 nM, do you know? 1
